// reported Kd per item
Target: T1, human TGFβ3, mature dimeric form (human, UniProt P10600 301-412)
T1 construct: Peprotech, expressed in E. coli; also called TGFb3
T1 sequence: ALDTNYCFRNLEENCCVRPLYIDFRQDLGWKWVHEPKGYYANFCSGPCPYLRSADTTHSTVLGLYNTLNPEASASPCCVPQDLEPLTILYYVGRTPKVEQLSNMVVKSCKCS
Test: BIAcore T200
Metric: Kd (nM)

1. h4A11.v8 (antibody, V domains shown) VH: EQQLQESGPGLVKPSETLSLTCTVTGFSLSSYTVNWVRQPAGKGLEWIGYISYGGSAYYASWANGRFTISKDSSKNQVSLKLSSVTAADTAVYFCARHMQVGGAPTGSMAAFDPWGPGTLVTVSS VL: DAVLTQTPLSSPVTLGQPASISCQSSQSVYNNNYLSWFQQRPGQPPRLLIYGASTLTSGVPDRFSGSGAGTDFTLKISRVEAEDVGVYYCAGGYSGSSDKYAFGGGTKVEIK
0.0141
2. h4A11.v2 (antibody, human IgG1, kappa, N297G, V domains shown) VH: EQQLVESGGGLVQPGGSLRLSCAVSGFSLSSYTVNWVRQAPGKGLEWIGYISYGGSAYYASWANGRFTISKDSAKNSVYLQMNSLRAEDTAVYFCARHMQVGGAPTGSMAAFDPWGPGTLVTVSS VL: DAQLTQSPSSLSASVGDRVTITCQSSQSVYNNNYLSWFQQKPGKPPKLLIYGASTLTSGVPSRFSGSGSGTDFTLTISSLQPEDFATYYCAGGYSGSSDKYAFGGGTKVEIKR
0.0133
3. h4A11.v4 (antibody, human IgG1, kappa, N297G, V domains shown) VH: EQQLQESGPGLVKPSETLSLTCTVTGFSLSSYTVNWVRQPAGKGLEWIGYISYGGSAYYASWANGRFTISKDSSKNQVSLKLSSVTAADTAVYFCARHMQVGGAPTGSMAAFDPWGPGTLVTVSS VL: DAQLTQSPSSLSASVGDRVTITCQSSQSVYNNNYLSWFQQKPGKPPKLLIYGASTLTSGVPSRFSGSGSGTDFTLTISSLQPEDFATYYCAGGYSGSSDKYAFGGGTKVEIKR
0.0101
